Biological target: Short transient receptor potential channel 4 (Mus musculus) (UniProt Q9QUQ5)
Sequence (Q9QUQ5 whole entry, looked up): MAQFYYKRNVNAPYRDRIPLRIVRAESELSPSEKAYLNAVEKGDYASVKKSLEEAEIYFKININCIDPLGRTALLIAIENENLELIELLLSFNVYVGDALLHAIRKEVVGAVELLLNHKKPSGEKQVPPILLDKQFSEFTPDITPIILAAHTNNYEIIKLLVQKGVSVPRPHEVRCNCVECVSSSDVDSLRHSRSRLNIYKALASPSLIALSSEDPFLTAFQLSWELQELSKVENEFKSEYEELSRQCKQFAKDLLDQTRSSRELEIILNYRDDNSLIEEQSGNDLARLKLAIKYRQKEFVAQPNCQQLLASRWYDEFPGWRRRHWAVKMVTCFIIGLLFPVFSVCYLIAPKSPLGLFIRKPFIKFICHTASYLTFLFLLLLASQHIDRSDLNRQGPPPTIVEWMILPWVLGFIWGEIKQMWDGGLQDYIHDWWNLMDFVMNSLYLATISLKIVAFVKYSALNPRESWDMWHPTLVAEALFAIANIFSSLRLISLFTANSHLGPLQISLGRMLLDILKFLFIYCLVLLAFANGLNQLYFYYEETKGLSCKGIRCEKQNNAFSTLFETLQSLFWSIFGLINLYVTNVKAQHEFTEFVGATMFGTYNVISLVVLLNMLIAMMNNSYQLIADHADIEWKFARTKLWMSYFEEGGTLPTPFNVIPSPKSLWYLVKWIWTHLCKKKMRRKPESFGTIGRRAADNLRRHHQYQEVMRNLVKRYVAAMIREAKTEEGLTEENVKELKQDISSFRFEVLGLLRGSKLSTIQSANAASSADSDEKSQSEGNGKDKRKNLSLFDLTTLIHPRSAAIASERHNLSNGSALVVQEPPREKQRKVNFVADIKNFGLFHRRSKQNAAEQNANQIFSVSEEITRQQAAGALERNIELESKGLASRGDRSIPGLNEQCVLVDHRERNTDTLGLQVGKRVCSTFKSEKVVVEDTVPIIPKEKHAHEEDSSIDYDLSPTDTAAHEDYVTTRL
Assay: blockers of DAMGO-evoked TRPC4 calcium flux – cell-based, Fluo4, HEK293 TRPC4beta/mu-opioid, confirmation (AID 2636)
Conditions: at 10 µM; hits give high values
The source made the active and inactive calls.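 The calls were made as follows: active = calcium signal cut by more than 3 SD below the full-agonist control yet still positive, in both repeats and the earlier primary screen; inactive = the rest.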
quantity-kind: inhibition

Below, 6 compounds whose answers are already recorded.
GET /values?readout=inhibition&item= CCOc1ccc(CN2CCCC(CNC(=O)c3ccc(F)cc3)C2)cc1CO (stereo not drawn)
inactive

Recorded inhibition of "CCc1ccc2nc(N=C(N)N)nc(C)c2c1" , please.
93% (active)

Given the compound "COC(=O)c1cccc(Nc2c3c(nc4ccccc24)CCC3)c1" , what is its reported inhibition?
96% (active)

Could you tell me which inhibition is on file for "CCOc1ccc(CCNC(=O)c2ccc3c(=O)[nH]c4c(C(=O)NC(C)C)sc(=S)n4c3c2)cc1" ?
inactive

Query (compound): "O=C(C[n+]1cc(-c2ccc(Br)cc2)n2c1CCCCC2)c1ccccc1" ; field requested: inhibition
inactive

Requested field: inhibition. Item: "COC(=O)[C@@]12CCCCN1[C@H](c1ccc(-c3ccc(C(C)=O)cc3)cc1)[C@@H]1C(=O)N(C)C(=O)[C@@H]12"
inactive

More entries:
Query: inhibition; subject: "Cc1cccc(C)c1N1CCc2cn[nH]c21"
84% (active)

====

Tested on: transient receptor potential cation channel C4 beta (TRPC4), mouse
Assay: TRPC4 cation channel opening, second retest – cell-based, second round, Fluo4, HEK293 TRPC4beta/mu-opioid, 1 µM, confirmation (AID 2461)
Settings: Fluo4 calcium fluorescence, at 1 µM
Active and inactive are the calls of the source.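 Rule for the calls: active = primary screen active and over 50% activation in each of two duplicate runs; inactive = the rest.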
Outcome field: choose from active, inactive

Hello, I am checking results. What call was entered for "Fc1ccc(NC(=S)NCCc2ccccn2)cc1" ?
active

For this compound, state the assay outcome: "O=[N+]([O-])c1ccc(N2CCN(CCOc3nonc3-c3ccccc3)CC2)c(Cl)c1"
inactive

I'd appreciate the recorded outcome for CCC(O)(c1ccc(OC)cc1)C(CN1CCOCC1)c1ccccc1 (stereo unspecified) from this test.
inactive

# outcome recorded in this test, key = "CNCC(=O)N1CCN(c2ncc(C(F)(F)F)cc2Cl)CC1"
active

Please state the recorded outcome for this compound: "c1ccc(Cn2nnc3cnccc32)cc1"
inactive

Which outcome was assigned to CC1CCCN(CCCN2C(=O)C3C(C(=O)Nc4ccc(Cl)cc4)C4C=CC3(O4)C2C(=O)NC2CCCCC2)C1 (stereo unspecified) in this test?
inactive

====

Molecular target: Short transient receptor potential channel 4 (Mus musculus)
Test: blockers of DAMGO-evoked TRPC4 calcium flux – cell-based, Fluo4, HEK293 TRPC4beta/mu-opioid, confirmation (AID 2636)
Settings: at 10 µM
Activity calls are given as the source filed them.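 Rule for the calls: active = calcium signal cut by more than 3 SD below the full-agonist control yet still positive, in both repeats and the earlier primary screen; inactive = the rest.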
Just give me one of these, please: active, inactive

Please indicate how the test categorized "S=c1[nH]nc(-c2cc3c(s2)-c2ccccc2CC3)o1" .
active

Tell me the recorded outcome of this test for COc1cccc(C2=NN(C(=O)c3ccco3)C(c3ccco3)C2)c1 (stereo not drawn) .
active

Could you please tell me the result logged for CN(C)C(CNC(=S)Nc1ccccc1Cl)c1cccnc1 (stereo not drawn) in this assay?
inactive

Called result for CC1CC(C)CN(CCCNC(=O)c2ccc3c(c2)N(Cc2ccccc2)C(=O)c2ccccc2S3=O)C1 (stereo not drawn)
inactive

I would be grateful if you could indicate the recorded call for "O=C(COc1ccccc1-c1ccccc1)NCc1ccco1" .
inactive

// param item: CC1=C(C(=O)NCCN2CCN(C)CC2)C2(CCC(C)CC2)OC1=O (stereo not drawn) ; yields the recorded call
inactive

What was the test verdict on "Cc1nn(-c2ccccc2)c2nc(-c3ccccc3)cc(C(=O)N3CCOCC3)c12" ?
inactive

Just curious, what result did COc1ccccc1/C=C/CN1CCCC(CCC(=O)NCc2ccccc2F)C1 (stereo not drawn) get here?
active

Record lookup: outcome of this test for "COc1ccc(OC)c(Nc2cc(-c3ccccc3)nc(N)n2)c1" ?
active

Per the records of this test, what outcome belongs to "CCOc1ccc(-n2c(SCC(=O)O)nc3sc4c(c3c2=O)CCCC4)cc1" ?
inactive

Which outcome was entered for the molecule "C=CCn1c(/N=C/c2ccc(N(C)C)cc2)nc2ccccc21" in this test?
inactive

Tell me the recorded outcome of this test for "Cc1cccc(-n2ccnc2CN2CCC(CO)(Cc3ccccc3)CC2)c1" .
active

// return assay outcome for CC(C)CCN1CCN(Cc2ccsc2)CC1CCO (stereo not drawn)
active

Check the results log: what was the call for "Cc1cc(Nc2ccc(C)c(C)c2)c2ccccc2n1" ?
active

What did this assay record as the result for "O=C(Nc1ccncc1)c1ccc(Cl)c(S(=O)(=O)N2CCc3ccccc32)c1" ?
inactive

I would be grateful if you could indicate the recorded call for COc1ccc(NC(=O)c2cccc(N3C(=O)C4CC=C(C)CC4C3=O)c2)c(OC)c1 (stereo not drawn) .
active

Short answer needed: outcome of this test for "CC(=O)C1=C(S(=O)(=O)c2ccc(C)cc2)CS(=O)(=O)C1" ?
active

Assay result, entry "Cc1cc(C)c(C(=O)c2ccc(C(=O)N3CCCCC3)cc2)c(C)c1" — outcome?
inactive

Hello, I am checking results. What call was entered for "N=c1sccn1CC(=O)Nc1ccccc1Oc1ccccc1" ?
active

What is the recorded call for this molecule in the test? "Cc1cccc(Cc2c(C)nc3c(C(=O)NCc4ccco4)cnn3c2C)c1"
inactive

Recorded test call requested for CCOC(=O)C1(Cc2ccccc2)CCN(CC2CC=CCC2)CC1 (stereo not drawn)
active

Please share the test call associated with "O=C(Cc1ccccc1)Nc1cccc(NC(=O)c2cccs2)c1" .
inactive

Each molecule tested received a call. Report the one for CCCC1C(=O)Nc2ccccc2N1C(=O)c1ccc(C(C)(C)C)cc1 (stereo not drawn) .
inactive

====

Test system: TRPC4 (transient receptor potential cation channel C4 beta), mouse
Assay: potentiation of DAMGO EC20 TRPC4 response – cell-based, second round, Fluo-4, HEK293 TRPC4beta/mu-opioid, 1 µM, confirmation (AID 2554)
Details: DAMGO EC20, Fluo-4 calcium flux, at 1 µM; hits give high values
Active and inactive are the calls of the source.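 The calls were made as follows: active = primary screen hit whose fluorescence ratio, in both repeats, exceeds the weak agonist control mean by 3 SD; inactive = the rest.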
quantity-kind: potentiation

Consider the worked cases shown below.
Request: potentiation, test system TRPC4 (transient receptor potential cation channel C4 beta), mouse, entry "COCCn1c(SCC(=O)c2ccccc2)nc2ccccc2c1=O"
inactive

Form entry - test system: TRPC4 (transient receptor potential cation channel C4 beta), mouse; read-out: potentiation; compound: "Clc1ccc(COc2ccccc2CNCc2cccnc2)cc1"
inactive

Form: Entry = "COc1ccc(C(=O)Nc2ccccc2N2CCN(C(=O)c3ccccc3)CC2)cc1Br" | System = TRPC4 (transient receptor potential cation channel C4 beta), mouse | potentiation = ____
inactive

Notebook: pull reported potentiation for TRPC4 (transient receptor potential cation channel C4 beta), mouse, entry "Nc1cc(=O)nc(SCC(=O)N2CCN(c3ccccc3)CC2)n1-c1ccc(F)cc1"
inactive

Checklist item: potentiation tested on TRPC4 (transient receptor potential cation channel C4 beta), mouse, entry "c1ccc2c(c1)[nH]c1c(N3CCCC3)ncnc12" , value?
inactive

Next:
Hello, I am looking for reported potentiation with TRPC4 (transient receptor potential cation channel C4 beta), mouse for Cc1cc2oc(C(=O)N(Cc3ccco3)C3CCS(=O)(=O)C3)cc(=O)c2cc1Cl (stereo unspecified) . Could you help?
inactive

Short answer please: potentiation, TRPC4 (transient receptor potential cation channel C4 beta), mouse, entry "O=[N+]([O-])c1cc([N+](=O)[O-])c2oc(-c3ccccc3)c(Br)c2c1O"
inactive

====

Tested on: TRPC4 (mouse), co-expressed with 5HT1a in HEK293
Test: enhancement of serotonin-evoked TRPC4 response – cell-based, second counter screen, HEK293 TRPC4/5HT1a, Fluo-4, counter-screen for TRPC4 potentiator project, confirmation (AID 434979)
Conditions: Fluo-4 calcium flux, at 10 µM, serotonin added at its EC20 dose; hits give high values
Activity calls are given as the source filed them.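 Rule for the calls: active = signal rise over 3 SD above mean of control wells given weak agonist, in both repeats and first screen; inactive = the rest.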
quantity-kind: potentiation

Known results for compounds:
# lookup: potentiation of "Cc1ccc(C(C)C)cc1OCCCCN1CCCC1"
6.54% (active)

# get_value(readout='potentiation', item= "Cc1c(CCOC(=O)c2ccc([N+](=O)[O-])cc2)sc[n+]1CC(=O)c1ccccc1" )
inactive

Would you mind telling me what potentiation value was observed for O=C(NCCCN1CCOCC1)c1ccc(NC(=O)C2COc3ccccc3O2)cc1 (stereo unspecified) ?
inactive

Which measured potentiation value corresponds to "Oc1ccccc1-c1cc(-c2ccco2)[nH]n1" ?
inactive

Endpoint output: potentiation of "Fc1ccc(CN2C3=NCCCN3c3ccccc32)cc1" . Value?
inactive

Others:
Value lookup for potentiation; key = "O=C(Nc1ccc(Oc2ccccc2)nc1)C1CCN(Cc2ccccc2)CC1"
inactive

For "O=C(CN1CCN(Cc2ccccc2Cl)CC1)N=Nc1c(O)[nH]c2ccccc12" , what is its reported potentiation?
inactive

====

Assay: nonspecific calcium rise without TRPC4 – cell-based, HEK293 mu-opioid receptor line, counter-screen for TRPC4 activator project, confirmation (AID 449723);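 also: counter screen cells carry the mu-opioid receptor alone and lack TRPC4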
Conditions: HEK293 mu-opioid cells, Fluo-4 calcium fluorescence, at 10 µM; hits give high values
Active and inactive are the calls of the source.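 How the source made its calls: active means hit in primary screen, with calcium signal over 5 SD above buffer well mean in both duplicates; inactive means the rest.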
quantity-kind: activation

Known results for molecules:
Query: activation; subject: CCOc1c(Cl)cc(CNCC(O)c2ccccc2)cc1OC (configuration not stated)
inactive

# input molecule: "CCN(C(=O)c1cnc(NC(C)C)cc1C(F)(F)F)c1ccc(Cl)cc1Cl" ; wanted: its activation
inactive

Item "C=CCn1cnc2scc(-c3ccc(CC)cc3)c2c1=O" has what recorded activation?
inactive

Any idea what its activation is? The molecule is "O=C(NCc1ccccc1)c1ccc(S(=O)(=O)Nc2cccc(C(F)(F)F)c2)cc1"
inactive

So what's the measured activation for this one? "CC1CCN(CCCOc2ccc(OCc3ccccc3)cc2)CC1"
inactive

What activation value was documented for this molecule, CCOC(=O)C1=NNC(C(=O)c2ccc(Cl)cc2)C1c1ccc(OC)cc1 (configuration not stated) ?
inactive

Looking for the measured activation of O=C(c1ccccc1)C1CCc2occc2C1=O (configuration not stated) , can you help?
inactive

Which value of activation has been reported for "COc1nc(N=C(N)N)nc2ccc(C)cc12" in the records?
inactive

Others:
I would be grateful if you could share the reported activation for "CN(C)CCNc1ccc(Cl)cc1[N+](=O)[O-]" .
inactive

# activation lookup, item "CCN1CCN(c2c(Cl)cccc2NC(=O)c2cc3ccccc3o2)CC1"
inactive

Request the reported activation associated with Cc1ccc(Cn2c(=N)c(C(=O)NCC3CCCO3)cc3c(=O)n4ccccc4nc32)cc1 (configuration not stated)
inactive

Could you share which activation value was measured for "N=c1c2c(n(Cc3ccc(Cl)cc3)c3c1CCC3)CCC2" ?
inactive
